biological target: recombinant human TFPI (tissue factor pathway inhibitor) (human, UniProt P10646 29-304); experiment: cell-based or functional assay
quantity: FXa assay % of FXa alone, 2.5 nM Ab, 10 nM TFPI (%)
API: value field is a number in %; no unit string.

Note FXa assay % of FXa alone, 2.5 nM Ab, 10 nM TFPI for the binder shown: clone 3007 (antibody, V domains shown) VH: EVQLVESGGGLVKPGGSLRLSCAASGFTFTSYAMNWVRQAPGKGLEWVSTITLGGSYTYYADSVQGRFTISRDNAKNSLYLQMNSLRAEDTAVYYCARQDGNFLMDYWGQGTLVTVSS VL: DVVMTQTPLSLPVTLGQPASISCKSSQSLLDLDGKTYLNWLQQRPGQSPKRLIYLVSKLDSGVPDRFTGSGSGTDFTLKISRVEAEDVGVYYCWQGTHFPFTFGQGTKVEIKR
3.5

Give me measured FXa assay % of FXa alone, 2.5 nM Ab, 10 nM TFPI, please, for this binder: clone 3016 (antibody, V domains shown) VH: EVQLVESGGGLVKPGGSLRLSCAASGFTFSSYAMNWVRQAPGKGLEWVSTITTGGSHTYYADSVEGRFTISRDNAKNSLYLQMNSLRAEDTAVYYCARQDGNFLMDYWGQGTLVTVSS VL: DVVMTQTPLSLPVTLGQPASISCKSSQSLLDSDGKTYLNWLQQRPGQSPKRLIYLVSKLDSGVPDRFTGSGSGTDFTLKISRVEAEDVGVYYCWQGTHLPFTFGQGTKVEIKR
3.7

For clone 1015 (antibody, V domains shown) VH: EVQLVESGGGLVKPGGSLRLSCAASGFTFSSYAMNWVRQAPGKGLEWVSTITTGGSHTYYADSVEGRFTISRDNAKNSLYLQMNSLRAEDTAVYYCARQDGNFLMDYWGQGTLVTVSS VL: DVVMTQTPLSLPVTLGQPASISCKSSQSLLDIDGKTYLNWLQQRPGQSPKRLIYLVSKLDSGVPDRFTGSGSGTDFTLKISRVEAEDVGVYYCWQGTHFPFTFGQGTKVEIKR , write its FXa assay % of FXa alone, 2.5 nM Ab, 10 nM TFPI.
6.5

Find the measured FXa assay % of FXa alone, 2.5 nM Ab, 10 nM TFPI of clone 1021 (antibody, V domains shown) VH: EVQLVESGGGLVKPGGSLRLSCAASGFTFSSYAMNWVRQAPGKGLEWVSTITTGGSYTYYADSVDGRFTISRDNAKNSLYLQMNSLRAEDTAVYYCARQDGHFLMDYWGQGTLVTVSS VL: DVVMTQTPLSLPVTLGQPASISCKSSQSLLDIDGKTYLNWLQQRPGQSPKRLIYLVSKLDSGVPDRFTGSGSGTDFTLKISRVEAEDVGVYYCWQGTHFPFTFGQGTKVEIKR and report it.
4.7

// Input: clone 1023 (antibody, V domains shown, scFv on yeast at selection; human IgG4/kappa IgG as purified) VH: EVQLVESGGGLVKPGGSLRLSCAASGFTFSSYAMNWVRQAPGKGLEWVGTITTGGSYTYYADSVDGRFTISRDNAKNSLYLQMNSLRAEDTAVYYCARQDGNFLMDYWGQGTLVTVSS VL: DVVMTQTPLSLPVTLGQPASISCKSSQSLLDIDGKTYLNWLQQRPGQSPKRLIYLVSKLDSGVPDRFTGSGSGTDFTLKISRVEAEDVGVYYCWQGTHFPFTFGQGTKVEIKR . Output its FXa assay % of FXa alone, 2.5 nM Ab, 10 nM TFPI only.
8.4

Answer with the recorded FXa assay % of FXa alone, 2.5 nM Ab, 10 nM TFPI for the binder listed here: clone 3024 (antibody, V domains shown) VH: EVQLVESGGGLVKPGGSLRLSCAASGFTFSSYAMSWVRQAPGKGLEWVSTITTGGSYTYYADSVQGRFTISRDNAKNSLYLQMNSLRAEDTAVYYCARQDGNFLMDYWGQGTLVTVSS VL: DVVMTQTPLSLPVTLGQPASISCKSSQSLLDSDGKTYLNWLQQRPGQSPKRLIYLVSKLDSGVPDRFTGSGSGTDFTLKISRVEAEDVGVYYCWQGTHLPFTFGQGTKVEIKR
3.6
